result-type: melting point

// below: answered compounds
CC(=O)NC1Cc2ccc(C(=O)CCl)cc2C1 (centres undefined)	173 to 174 °C
CCNC(=O)CCCNC(=O)CCCNC(=O)CCCNC(=O)OC(C)(C)C	170 to 171 °C
CCCCCCCCCCC1CCCC1C(=O)Nc1cccc2ncccc12 (centres undefined)	75 °C
Cc1c(C)c2c(c(C)c1NC(=O)OC(C)(C)C)C(O)(c1ccc(C(C)C)cc1)C(C)(C)O2 (centres undefined)	155 to 157 °C
CC#CCOc1ccc(S(=O)(=O)NC2(C(=O)O)CCCC2)cc1	108 to 110 °C
CCCCc1nn(-c2cc(NC(C)=O)ccc2Cl)c(=O)n1Cc1ccc(-c2cc(CCC)ccc2S(=O)(=O)NC(=O)OC(C)(C)C)cc1F	< 130 °C

# lookup: melting point of N#CNC(=O)C12CC3CC(CC(C3)C1)C2
164 to 166 °C

Same lookup for CC1Cc2cc3c(cc2C(c2ccc([N+](=O)[O-])cc2)=NN1C1=NCCS1)OCO3 (centres undefined) , please.
185 to 187 °C

Same lookup for COC(=O)/C=C/c1cc2c(-c3ccccc3)c(CC(=O)Nc3ccc(F)cc3C(F)(F)F)c(=O)oc2cc1C , please.
233 to 236 °C

Next entry: CC1(C)C(C=CC(=O)OCC(F)(F)F)C1C(=O)OC(C#N)c1ccc(F)c(Oc2ccccc2)c1 (centres undefined)
56 °C

One more compound: O=CC1CCc2[nH]c3ccc(F)cc3c2C1 (centres undefined)
96 to 98 °C

Subsequent entry: O=Cc1nn(-c2c(Cl)cc(C(F)(F)F)cc2Cl)cc1SC(F)(F)F
79 to 81 °C

What about this compound? CCCCCCCCC1(CCCCCCCC)c2cc(O)ccc2-c2ccc(Br)cc21
110 °C

Another compound to look at: CS(=O)(=O)OCC1CCN(C(=O)c2ccccc2)CC1
87 to 90 °C

* * *

# melting point values compiled below

Need melting point, item COc1cc([N+](=O)[O-])c(C(OC(=O)C(Cl)(Cl)Cl)c2ccccc2)c([N+](=O)[O-])c1OC (centres undefined)
105 to 106 °C

* * *

result-type: melting point

Which melting point value is on record for O=Cc1ccc(OC2CCCC2)c(O)c1 ?
87 to 89 °C

* * *

result-type: melting point

Please review the entries below; each comes with its answer.
CC=Cc1ccccc1Oc1ccc(Oc2ccccc2C=CC)nn1	165 to 168 °C
Cc1nnsc1C(=O)Nc1ccc(-n2nc(C3CC3)cc2C2CC2)cc1	117 to 120 °C
CCOC1CCC(=O)N1S(=O)(=O)c1ccc(OC)cc1 (centres undefined)	112 to 113 °C

Which melting point value belongs to Clc1cnc2c(C(Cl)Cl)c(Cl)ccc2c1 ?
154 °C

Field entry: COCc1ccn2nc(S(=O)(=O)Nc3c(C)cccc3Cl)nc2n1
196 °C

CC(C)n1nc(O)nc1N1CCCC1 ?
123 to 125 °C

Param item: COC(=O)c1nsc2nc3ccccc3n12
208 to 209 °C

What do you have for CCC(C)Sc1cc(C(F)(F)F)ccc1C(=O)c1cnoc1C1CC1 (centres undefined) ?
75.6 to 76.4 °C

Same question, O=C1c2ccccc2C(=O)N1CC#CC1=CCN=C(c2ccccc2F)c2cc(Cl)ccc21 this time
164 to 165 °C

Same again, this time with CCOC(=O)[C@@](CC)(CCCNCCc1c[nH]c2ccc(F)cc12)C(OCC)OCC
100 °C

Note, next up: Cc1cc2c(cc1C)CC(=O)NC=C2
220 to 224 °C

Continue with O=C(Nc1ccc2c(c1)CCC(CCl)=C2)c1ccc(-c2ccc(Cl)cc2)cc1
179 to 181 °C
